- assay-target: Peroxisome proliferator-activated receptor gamma (Homo sapiens, UniProt P37231)
- Sequence (P37231 whole entry): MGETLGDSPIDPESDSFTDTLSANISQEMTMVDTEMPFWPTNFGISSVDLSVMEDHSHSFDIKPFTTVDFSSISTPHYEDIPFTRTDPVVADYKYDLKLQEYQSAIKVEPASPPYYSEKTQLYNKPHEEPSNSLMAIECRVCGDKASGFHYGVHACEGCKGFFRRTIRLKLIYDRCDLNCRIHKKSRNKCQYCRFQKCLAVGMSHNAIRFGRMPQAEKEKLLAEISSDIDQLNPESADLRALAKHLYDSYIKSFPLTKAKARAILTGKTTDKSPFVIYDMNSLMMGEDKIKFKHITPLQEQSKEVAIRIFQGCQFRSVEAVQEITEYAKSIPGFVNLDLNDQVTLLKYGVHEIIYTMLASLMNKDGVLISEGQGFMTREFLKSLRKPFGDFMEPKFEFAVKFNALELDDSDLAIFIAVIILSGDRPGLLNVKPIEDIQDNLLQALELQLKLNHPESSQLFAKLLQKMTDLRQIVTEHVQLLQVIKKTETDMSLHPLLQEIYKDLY
- experimental-protocol: Partial agonist activity at GAL4-tagged human PPARgamma LBD expressed in HEK293T cells incubated for 12 to 14 hrs by dual-Glo luciferase assay
- Type: cell-based
quantity-measured: EC50 (µM)
The reply should contain only the number, in µM.

Please look up its EC50: `CS(=O)(=O)Nc1ccc(CNC(=O)c2ccc3c(ccn3Cc3cccc(F)c3)c2)c(C(F)(F)F)c1` 0.19

Next compound up: `O=C(NCc1ccccc1C(F)(F)F)c1ccc2c(cnn2Cc2cccc(F)c2)c1` 1.6

Next compound up: `CC(C)S(=O)(=O)n1ccc2cc(C(=O)NCc3ccc(NS(=O)(=O)C4CC4)cc3C(F)(F)F)ccc21` 1.05

Next compound up: `CS(=O)(=O)Cc1ccc(CNC(=O)c2ccc3c(ccn3Cc3cccc(F)c3)c2)c(C(F)(F)F)c1` 1.35

Next compound up: `CSCc1ccc(CNC(=O)c2ccc3c(ccn3Cc3cccc(F)c3)c2)c(C(F)(F)F)c1` 1.43

Next compound up: `COc1ccc(CNC(=O)c2ccc3c(cnn3Cc3cccc(F)c3)c2)c(C(F)(F)F)c1` 1.59

Next compound up: `O=C(NCc1ccc(NS(=O)(=O)C2CC2)cc1C(F)(F)F)c1ccc2[nH]ccc2c1` 1.48

Next compound up: `CC(C)n1ccc2cc(C(=O)NCc3ccc(NS(=O)(=O)C4CC4)cc3C(F)(F)F)ccc21` 0.49

Next compound up: `O=C(NCc1ccccc1C(F)(F)F)c1ccc2c(c1)[nH]c(=O)n2Cc1cccc(F)c1` 0.12

Next compound up: `O=C(NCc1ccc(NS(=O)(=O)C2CC2)cc1C(F)(F)F)c1ccc2c(ccn2Cc2cccc(F)c2)c1` 0.22

Next compound up: `COc1ccc(CNC(=O)c2ccc3c(ccn3Cc3cccc(F)c3)c2)c(C(F)(F)F)c1` 0.85

Next compound up: `CCS(=O)(=O)Nc1ccc(CNC(=O)c2ccc3c(ccn3Cc3cccc(F)c3)c2)c(C(F)(F)F)c1` 0.37
